Molecular target: Recombinant human his-tagged IGF 1R extracellular domain protein (human) (UniProt P08069)
Experiment: SPR, captured antibody, pH 7.4
Reported metric: kon (M⁻¹ s⁻¹)
All answers are understood in M⁻¹ s⁻¹, so give the number only.

Use these answered entries as a reference point.
{"Binder": "VRDN-03046 (antibody, V domains shown) VH: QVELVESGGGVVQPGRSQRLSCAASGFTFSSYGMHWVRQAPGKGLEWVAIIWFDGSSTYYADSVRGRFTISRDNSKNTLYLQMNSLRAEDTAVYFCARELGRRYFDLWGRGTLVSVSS VL: EIVLTQSPATLSLSPGERATLSCRASQSVSSHLAWYQQKPGQAPRLLIYDASKRATGIPARFSGSGSGTDFTLTISSLEPEDFAVYYCQQRSKWPPWTFGQGTKVESK", "Value measured": 103000}
{"Binder": "VRDN-03135 (antibody, V domains shown) VH: EVQLVESGGGVVQPGRSLRLSCAASGFTFDDYAMHWVRQAPGKGLEWVAIIWFDGSSKYYADSVKGRFTISRDNSKNTLYLQMNSLRAEDTAVYYCARELGRRYFDIWGQGTLVTVSS VL: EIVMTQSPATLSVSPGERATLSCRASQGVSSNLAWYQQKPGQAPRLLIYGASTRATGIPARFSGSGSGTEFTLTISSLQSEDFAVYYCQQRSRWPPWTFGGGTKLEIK", "Value measured": 102000}

Here's the next entry for you.
// kon value for VRDN-03108 (antibody, V domains shown) VH: QVQLVESGGGVVQPGRSLRLSCAASGFTFSSYSMHWVRQAPGKGLEWVAIIWFDGSSKYYVDSVKGRFTISRDNSKNTLYLQMNSLRAEDTAVYYCARELGRRYFDIWGRGTLVTVSS VL: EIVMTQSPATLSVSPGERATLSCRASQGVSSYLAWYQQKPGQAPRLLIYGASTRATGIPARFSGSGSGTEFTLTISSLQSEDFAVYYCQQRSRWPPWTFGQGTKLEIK : 49000
